- TARGET_SYSTEM: NAMPT (human, recombinant, C-terminally His-tagged) (Homo sapiens, UniProt P43490)
- Sequence (P43490 whole entry): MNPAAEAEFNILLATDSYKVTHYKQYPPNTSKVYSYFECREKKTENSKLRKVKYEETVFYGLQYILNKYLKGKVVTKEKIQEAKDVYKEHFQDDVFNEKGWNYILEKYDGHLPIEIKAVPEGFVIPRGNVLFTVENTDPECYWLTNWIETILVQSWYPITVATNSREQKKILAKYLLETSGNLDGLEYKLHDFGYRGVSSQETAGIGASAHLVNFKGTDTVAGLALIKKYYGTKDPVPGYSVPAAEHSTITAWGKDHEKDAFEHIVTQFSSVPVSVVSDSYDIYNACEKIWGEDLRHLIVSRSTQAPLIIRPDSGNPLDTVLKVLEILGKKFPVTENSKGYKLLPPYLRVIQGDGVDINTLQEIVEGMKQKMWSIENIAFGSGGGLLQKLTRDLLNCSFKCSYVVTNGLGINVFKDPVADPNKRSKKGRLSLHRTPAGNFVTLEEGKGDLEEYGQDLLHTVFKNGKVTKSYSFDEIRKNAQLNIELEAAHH
- ASSAY: Time-Resolved Fluorescence Resonance Energy Transfer (TR-FRET) Binding Assay of NAMPT
- COND: without substrates; 6.8 nM NAMPT, 200 nM probe, 3 hours equilibration
pIC50: −log10 of the molar value.
REPORTED_METRIC: pIC50

Here is how some molecules turned out for pIC50.
CC(C)C(=O)N1CC(Oc2ccc(C(=O)NCc3ccn4ccnc4c3)cc2)C1 [Example 558]; 5.85
CC(C)(O)C(=O)N1CC[C@@H](Oc2ccc(NC(=O)NCc3ccn4ccnc4c3)cc2)C1 [Example 334]; 7.09
CC(=O)N1CCC(c2ccc(C(=O)NCc3ccn4ccnc4c3)cc2)CC1 [Example 313]; 6.27

[a] O=C(NCc1ccn2ccnc2c1)Nc1ccc(C2CCN(C(=O)CN3CCOCC3)CC2)cc1 [Example 224]
[b] O=C(NCc1ccn2ccnc2c1)c1ccc(-c2cnn(C3CCS(=O)(=O)C3)c2)s1 (centres unmarked) [Example 296]
Compare a and b and name the one whose reported pIC50 is smaller. To answer, give the label that identifies your chosen option.
a
(a: 6.63, b: 7.17)

[A] O=C(NCc1ccn2ccnc2c1)c1cnc(N2C(=O)OC[C@H]2COCc2ccccc2)s1 [Example 187]
[B] CC(C)Cn1cc(-c2ccc(C(=O)NCc3ccc4nccn4c3)s2)cn1 [Example 75]
[C] O=C(NCc1ccn2ccnc2c1)c1ccc(C2CCN(C(=O)c3c(F)cccc3F)CC2)cc1 [Example 700]
Ordering: ascending pIC50. Please list each label once, in the requested order.
A, C, B

====

- TARGET_SYSTEM: NAMPT (human, recombinant, C-terminally His-tagged) (Homo sapiens)
- ASSAY: Time-Resolved Fluorescence Resonance Energy Transfer (TR-FRET) Binding Assay of NAMPT
- COND: without substrates; 6.8 nM NAMPT, 200 nM probe, 3 hours equilibration
REPORTED_METRIC: IC50 (nM)

Cc1ccsc1C(=O)N1CCC(c2ccc(C(=O)NCc3ccn4ccnc4c3)cc2)CC1 [Example 524]; 24.7

[I] Cc1noc(C)c1CCC(=O)N(CC1CCCO1)c1ncc(C(=O)NCc2ccc3nccn3c2)s1 (centres unmarked) [Example 129]
[II] O=C(NCc1ccn2ccnc2c1)c1ccc(C2CCN(C(=O)c3ccc(F)cc3)C2)cc1 (centres unmarked) [Example 562]
[III] O=C(NCc1ccn2ccnc2c1)c1ccc(-c2cnn(CCN3CCOCC3)c2)s1 [Example 294]
[IV] O=C(NCc1ccn2ccnc2c1)c1ccc(-c2cnn(CC3CCCO3)c2)o1 (centres unmarked) [Example 476]
Parameters: sort_field (IC50), sort_dir (desc). Please list each label once, in the requested order.
II, IV, III, I
(II: 218 nM, IV: 70.8 nM, III: 44.7 nM, I: 11.6 nM)

====

- TARGET_SYSTEM: NAMPT (human, recombinant, C-terminally His-tagged) (Homo sapiens, UniProt P43490)
- ASSAY: Time-Resolved Fluorescence Resonance Energy Transfer (TR-FRET) Binding Assay of NAMPT
- COND: without substrates; 6.8 nM NAMPT, 200 nM probe, 3 hours equilibration
REPORTED_METRIC: IC50 (nM)

O=C(Nc1ccc(C(=O)NCc2ccccc2)cc1)Nc1ccc2nccn2c1 [Example 7]; 183

[A] CC(C)C(=O)N1CCC(Oc2ccc(C(=O)NCc3ccc4nccn4c3)cc2)CC1 [Example 159]
[B] O=C(NCc1ccn2ccnc2c1)c1ccc(C2CCN(S(=O)(=O)c3ccccc3)C2)cc1 (stereo not shown) [Example 627]
For the two items A and B , which reports the higher IC50 value? To answer, give the label that identifies your chosen option.
A
